Each entry below carries its recorded pIC50.
- tested-on: GPR84 (Homo sapiens, UniProt Q9NQS5)
- Sequence (Q9NQS5 whole entry): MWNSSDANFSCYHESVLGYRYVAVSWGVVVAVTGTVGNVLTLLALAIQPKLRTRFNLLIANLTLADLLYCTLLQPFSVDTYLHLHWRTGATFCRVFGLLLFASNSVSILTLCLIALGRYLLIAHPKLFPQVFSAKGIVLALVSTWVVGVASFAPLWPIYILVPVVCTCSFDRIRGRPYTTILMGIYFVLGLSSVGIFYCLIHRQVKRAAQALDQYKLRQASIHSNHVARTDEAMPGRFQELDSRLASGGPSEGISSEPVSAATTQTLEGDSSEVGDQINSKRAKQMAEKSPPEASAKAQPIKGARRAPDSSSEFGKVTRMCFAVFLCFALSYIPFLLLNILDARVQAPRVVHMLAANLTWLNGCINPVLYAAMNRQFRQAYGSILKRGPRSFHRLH
pIC50: −log10 of the molar value.

INSERT INTO measurements (compound, recorded_measurement) VALUES
  ('NC(=O)c1ccc(F)c(-c2ccc3c(c2)CCn2c-3cc(OCC3COCCO3)nc2=O)c1 (centres unmarked)', '6.30 to 7.00'),
  ('O=c1nc(OCC2COCCO2)cc2n1CCc1cc(-c3ccc(N4CCCCC4)nc3)ccc1-2 (centres unmarked)', '7.00 to 11.00'),
  ('O=c1nc(OC[C@H]2COCCO2)cc2n1CCc1cc(OCc3noc(C4CC4)n3)ccc1-2', '7.00 to 11.00'),
  ('CCOc1ncccc1-c1ccc2c(c1)CCn1c-2cc(OCC2COCCO2)nc1=O (centres unmarked)', '7.00 to 11.00'),
  ('O=c1nc(OC[C@@H]2COCCO2)cc2n1CCc1cc(NC3CCCCC3)ccc1-2', '6.30 to 7.00');

Would you mind telling me what pIC50 value was observed for N#CCOc1ccc2c(c1)CCn1c-2cc(OCC2COCCO2)nc1=O (centres unmarked) ?
6.30 to 7.00

Would you mind telling me what pIC50 value was observed for O=c1nc(OC[C@H]2COCCO2)cc2n1CCc1cc(CCC3(O)CCCC3)ccc1-2 ?
6.30 to 7.00

Would you mind telling me what pIC50 value was observed for CC(O)CCc1ccc2c(c1)CCn1c-2cc(OC[C@@H]2COCCO2)nc1=O (some centres unmarked) ?
6.30 to 7.00

Would you mind telling me what pIC50 value was observed for O=c1nc(OC[C@H]2COCCO2)cc2n1CCc1cc(COC3CCOCC3)ccc1-2 ?
6.30 to 7.00

Would you mind telling me what pIC50 value was observed for COC(CCc1ccc2c(c1)CCn1c-2cc(OC[C@@H]2COCCO2)nc1=O)C(C)C (some centres unmarked) ?
7.00 to 11.00

Would you mind telling me what pIC50 value was observed for O=c1nc(OC[C@@H]2COCCO2)cc2n1CCc1cc(CCCCO)ccc1-2 ?
6.30 to 7.00

Would you mind telling me what pIC50 value was observed for O=c1nc(OCC2COCCO2)cc2n1CCc1cc(C#CC3CCCC3)ccc1-2 (centres unmarked) ?
7.00 to 11.00

Would you mind telling me what pIC50 value was observed for O=c1nc(OC[C@@H]2COCCO2)cc2n1CCc1cc(OCC3CCOCC3)ccc1-2 ?
7.00 to 11.00

Would you mind telling me what pIC50 value was observed for O=c1nc(OC[C@@H]2COCCO2)cc2n1CCc1cc(C#CCOCCF)ccc1-2 ?
6.30 to 7.00

Would you mind telling me what pIC50 value was observed for O=c1nc(OC[C@@H]2COCCO2)cc2n1CCc1cc(OCC3CC3)ccc1-2 ?
7.00 to 11.00

Would you mind telling me what pIC50 value was observed for CC(C)(C)COCc1ccc2c(c1)CCn1c-2cc(OC[C@@H]2COCCO2)nc1=O ?
7.00 to 11.00

Would you mind telling me what pIC50 value was observed for CCC(O)CCc1ccc2c(c1)CCn1c-2cc(OC[C@@H]2COCCO2)nc1=O (some centres unmarked) ?
6.30 to 7.00

The measurements presented in this section are drawn from patent US10047083B2.
